Reported IC50 values for a set of molecules
Test system: COR-L23;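 further: cell viability assay measuring how strongly compounds suppress growth of COR-L23 cells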
Test name: cells
Format: functional, cell-based
Applied conditions: Homo sapiens
Description: SANGER: Inhibition of human COR-L23 cell growth in a cell viability assay.
Recorded metric: IC50 (nM)

- Molecule: "C[C@]1(c2nc3c(C(N)=O)cccc3[nH]2)CCCN1 [VELIPARIB]"
  Recorded metric: "IC50"
  Censor symbol: ">"
  Readout value: 5000
- Molecule: "CCNC(=O)c1noc(-c2cc(C(C)C)c(O)cc2O)c1-c1ccc(CN2CCOCC2)cc1 [LUMINESPIB]"
  Recorded metric: "IC50"
  Censor symbol: "="
  Readout value: 27.1
- Molecule: "CO[C@@]12[C@H](COC(N)=O)C3=C(C(=O)C(C)=C(N)C3=O)N1C[C@@H]1N[C@@H]12 [MITOMYCIN]"
  Recorded metric: "IC50"
  Censor symbol: "="
  Readout value: 241
- Molecule: "CC[C@]1(O)C[C@@H]2CN(CCc3c([nH]c4ccccc34)[C@@](C(=O)OC)(c3cc4c(cc3OC)N(C)[C@H]3[C@@](O)(C(=O)OC)[C@H](OC(C)=O)[C@]5(CC)C=CCN6CC[C@]43[C@@H]65)C2)C1 [VINBLASTINE]"
  Recorded metric: "IC50"
  Censor symbol: "="
  Readout value: 3.62
- Molecule: "CC(=O)c1c(C)c2cnc(Nc3ccc(N4CCNCC4)cn3)nc2n(C2CCCC2)c1=O [PALBOCICLIB]"
  Recorded metric: "IC50"
  Censor symbol: "="
  Readout value: 1230

====

Test system: NCI-H526;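 further: growth inhibition of the human NCI-H526 cell line, measured by a cell viability assay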
Test name: cells
Type: functional, cell-based
Applied conditions: Homo sapiens
Description: SANGER: Inhibition of human NCI-H526 cell growth in a cell viability assay.
pIC50: −log10 of the molar value.
Reported pIC50 values for a set of compounds
Recorded metric: pIC50

- Compound: "CC(C)=CC[C@@H](O)C1=CC(=O)c2c(O)ccc(O)c2C1=O [SHIKONIN]"
  Censor symbol: "="
  Readout value: 5.58
- Compound: "CCn1c(-c2nonc2N)nc2cnc(Oc3cccc(NC(=O)c4ccc(OCCN5CCOCC5)cc4)c3)cc21 [GSK-269962A]"
  Censor symbol: "<"
  Readout value: 5.60
- Compound: "Cn1c(=O)n(-c2ccc(C(C)(C)C#N)cc2)c2c3cc(-c4cnc5ccccc5c4)ccc3ncc21 [DACTOLISIB]"
  Censor symbol: "="
  Readout value: 6.08

====

System: NB12;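 further: growth inhibition of human NB12 cells, read out by a cell viability assay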
Test name: cells
Type: functional, cell-based
Applied conditions: Homo sapiens
Description: SANGER: Inhibition of human NB12 cell growth in a cell viability assay.
Recorded metric: IC50 (µM)

- Molecule smiles: "N#C/C(=C1/Nc2ccccc2S1)c1ccnc(NCCc2cccnc2)n1"
  Unit tag: "µM"
  Censor symbol: ">"
  Readout value: 8
- Molecule smiles: "CC[C@]1(O)C[C@@H]2CN(CCc3c([nH]c4ccccc34)[C@@](C(=O)OC)(c3cc4c(cc3OC)N(C)[C@H]3[C@@](O)(C(=O)OC)[C@H](OC(C)=O)[C@]5(CC)C=CCN6CC[C@]43[C@@H]65)C2)C1"
  Unit tag: "µM"
  Censor symbol: "="
  Readout value: 0.0614
- Molecule smiles: "CO[C@@]12[C@H](COC(N)=O)C3=C(C(=O)C(C)=C(N)C3=O)N1C[C@@H]1N[C@@H]12"
  Unit tag: "µM"
  Censor symbol: "="
  Readout value: 1.2

====

Reported pIC50 values for a set of compounds
Test system: GR-ST
Test name: cells
Format: functional, cell-based
Applied conditions: Homo sapiens
Description: SANGER: Inhibition of human GR-ST cell growth in a cell viability assay.
pIC50: −log10 of the molar value.

- Molecule smiles: "Cc1n[nH]c2ccc(-c3cncc(OC[C@@H](N)Cc4c[nH]c5ccccc45)c3)cc12"
  Censor symbol: "="
  pIC50: 6.35
- Molecule smiles: "CO[C@@]12[C@H](COC(N)=O)C3=C(C(=O)C(C)=C(N)C3=O)N1C[C@@H]1N[C@@H]12"
  Censor symbol: "="
  pIC50: 6.92
- Molecule smiles: "Cn1c(=O)n(-c2ccc(C(C)(C)C#N)cc2)c2c3cc(-c4cnc5ccccc5c4)ccc3ncc21"
  Censor symbol: "="
  pIC50: 7.28
- Molecule smiles: "COc1cc(Nc2c(C#N)cnc3cc(OCCCN4CCN(C)CC4)c(OC)cc23)c(Cl)cc1Cl"
  Censor symbol: "<"
  pIC50: 5.70
- Molecule smiles: "Cc1[nH]c(/C=C2\\C(=O)Nc3ccc(S(=O)(=O)Cc4c(Cl)cccc4Cl)cc32)c(C)c1C(=O)N1CCC[C@@H]1CN1CCCC1"
  Censor symbol: "<"
  pIC50: 5.70
- Molecule smiles: "CCNc1cc(N[C@H]2CC[C@@H](O)CC2)nc(Nc2ccc3c(ccn3Cc3ccccc3)c2)n1"
  Censor symbol: "<"
  pIC50: 5.29
- Molecule smiles: "CC(=O)c1c(C)c2cnc(Nc3ccc(N4CCNCC4)cn3)nc2n(C2CCCC2)c1=O"
  Censor symbol: "<"
  pIC50: 5.40
- Molecule smiles: "Cc1nc(Nc2ncc(C(=O)Nc3c(C)cccc3Cl)s2)cc(N2CCN(CCO)CC2)n1"
  Censor symbol: "<"
  pIC50: 5.89
- Molecule smiles: "Fc1cc(-c2cc[nH]/c(=N/c3ccc(-n4cnc(N5CCOCC5)n4)cc3)n2)cc(N2CCOCC2)c1"
  Censor symbol: "="
  pIC50: 6.19
- Molecule smiles: "CC[C@]1(O)C[C@@H]2CN(CCc3c([nH]c4ccccc34)[C@@](C(=O)OC)(c3cc4c(cc3OC)N(C)[C@H]3[C@@](O)(C(=O)OC)[C@H](OC(C)=O)[C@]5(CC)C=CCN6CC[C@]43[C@@H]65)C2)C1"
  Censor symbol: "="
  pIC50: 8.12
